Just for reference, ChEMBL document CHEMBL1201862 is where these values come from.

test system: NCI-H23; assay: NCI tumour cell line growth inhibition, 48 h
The source made the active and inactive calls. Cut-off read from the data, not from the text of the source: active = GI50 up to about 1.1 µM and inactive = higher.
quantity: GI50

Q: Read the entry [N-]=[N+]=NC1(c2ccccc2)C(=O)c2cccc3c2N(CCC3)C1=O (configuration not stated) and write its reported GI50.
A: 49.7 µM (inactive)

Q: Read the entry CCOC(=O)C1C(c2ccc(OC)cc2)c2c(n[nH]c2O)CC1(C)O (configuration not stated) and write its reported GI50.
A: > 100 µM (inactive)

Q: Read the entry `COc1ccc(CNc2nc3ccccc3nc2C(=O)O)cc1OC` and write its reported GI50.
A: > 100 µM (inactive)

Q: Read the entry `C#CCn1c(=O)ccn(/C(=C/C(=O)OCC)C(=O)OCC)c1=O` and write its reported GI50.
A: 11.9 µM (inactive)

Q: Read the entry ClC1=NN=C(c2c[nH]c3ccccc23)CC1NCc1ccccc1 (configuration not stated) and write its reported GI50.
A: > 100 µM (inactive)

Q: Read the entry `CC1(C)CC(C2=NCCO2)CC(C)(C)N1` and write its reported GI50.
A: > 100 µM (inactive)

Q: Read the entry N#CC(NNC(=O)c1ccccc1O)c1ccccc1O (configuration not stated) and write its reported GI50.
A: 2.06 µM (inactive)

Q: Read the entry `S=C(Nc1cc(Cl)c(Cl)cc1Cl)SCc1ccccc1` and write its reported GI50.
A: 20.1 µM (inactive)

Q: Read the entry `O=C(NI1OC(=O)c2ccccc21)c1ccc(Cl)cc1` and write its reported GI50.
A: > 100 µM (inactive)

Q: Read the entry `CC1=C(C(=O)NNC(=O)C(N)=O)CC(C(=O)NNC(=O)C(N)=O)=C(C)N1` and write its reported GI50.
A: > 100 µM (inactive)

Q: Read the entry `COc1ccc(S(=O)(=O)N/N=C/C(=O)O)cc1` and write its reported GI50.
A: 369 µM (inactive)

Q: Read the entry `CN(C)c1ncnc2c1ncn2CCn1cnc2c(N(C)C)ncnc21` and write its reported GI50.
A: > 100 µM (inactive)

---

For each record, write down the corresponding GI50.
tested on: UO-31; test: NCI tumour cell line growth inhibition, 48 h
Active and inactive are the calls of the source. Cut-off read from the data, not from the text of the source: active = GI50 up to about 1.1 µM and inactive = higher.

Q: Read the entry `Oc1cc(-c2ccc(F)cc2)nc2ncccc12` and write its reported GI50.
A: 34.4 µM (inactive)

Q: Read the entry COc1ccccc1C1c2cc3c(cc2OC2(OC)COC(=O)C12)OCO3 (configuration not stated) and write its reported GI50.
A: 14.6 µM (inactive)

Q: Read the entry Cc1ccc([S+]([O-])c2ccccc2[N+](=O)[O-])cc1 (configuration not stated) and write its reported GI50.
A: 51.2 µM (inactive)

Q: Read the entry `CC1=C(C(=O)NNC(=O)C(N)=O)CC(C(=O)NNC(=O)C(N)=O)=C(C)N1` and write its reported GI50.
A: > 100 µM (inactive)

Q: Read the entry `O=S(=O)(O)CCSSCCS(=O)(=O)O` and write its reported GI50.
A: > 1000 µM (inactive)

Q: Read the entry COC(=O)C(Cc1nc2ccccc2nc1O)C(=O)C(=O)Nc1ccc(F)cc1 (configuration not stated) and write its reported GI50.
A: > 100 µM (inactive)

Q: Read the entry `CCOc1cc(NC(C)=O)ccc1C(=O)NNS(=O)(=O)c1ccc(NC(C)=O)cc1` and write its reported GI50.
A: 62.4 µM (inactive)

Q: Read the entry COc1cc(C2SCC(=O)N2c2ccc(NC(=O)c3ccc(N4C(=O)CSC4c4cc(OC)c(OC)c(OC)c4)cc3)cc2)cc(OC)c1OC (configuration not stated) and write its reported GI50.
A: 67.1 µM (inactive)

Q: Read the entry COC(=O)c1ccccc1CC1Cc2cc3c(cc2C1=O)CCC3 (configuration not stated) and write its reported GI50.
A: 22.3 µM (inactive)

Q: Read the entry `Clc1cc(Br)c2c3c(c(Br)cc(Cl)c13)C(Br)=C2Br` and write its reported GI50.
A: 44.6 µM (inactive)

Q: Read the entry Cc1ccc(S(=O)(=O)N(CC(O)COc2ccccc2)c2ccccc2Cl)cc1 (configuration not stated) and write its reported GI50.
A: 12.2 µM (inactive)

Q: Read the entry COc1cc(C2c3cc4c(cc3[C@@H](Nc3ccc(C#N)cc3)C3COC(=O)[C@H]23)OCO4)cc(OC)c1O (some centres not stated) and write its reported GI50.
A: 1.62 µM (inactive)

Q: Read the entry O=C(O)C(CS)Nc1c2ccccc2nc2ccccc12 (configuration not stated) and write its reported GI50.
A: 26 µM (inactive)

Q: Read the entry `CC(=O)OC(OC(C)=O)c1ncccc1C(=O)OC(C)C` and write its reported GI50.
A: 61.7 µM (inactive)

Q: Read the entry CN(C)C1=NC2=S(SC(Nc3ccccc3)=N2)S1 (configuration not stated) and write its reported GI50.
A: 24 µM (inactive)

Q: Read the entry CN(C)CCN1C(=O)c2ccccc2C1(O)c1ccc(Cl)cc1 (configuration not stated) and write its reported GI50.
A: 24.3 µM (inactive)

Q: Read the entry `CCCCCCCCCCCCCCCC[N+](C)(C)Cc1ccc(F)cc1` and write its reported GI50.
A: 6.84 µM (inactive)

Q: Read the entry COC(=O)C1Cc2ccc(C)cc2C1=O (configuration not stated) and write its reported GI50.
A: > 100 µM (inactive)

Q: Read the entry `CCOC(=O)NC(C(F)(F)F)(C(F)(F)F)P(=O)(OC(C)C)OC(C)C` and write its reported GI50.
A: > 100 µM (inactive)

Q: Read the entry O=C1CSC2=NC3=C(COC/C3=C\c3ccc(F)cc3)C(c3ccc(F)cc3)N12 (configuration not stated) and write its reported GI50.
A: 38.4 µM (inactive)

Q: Read the entry `CCNc1nc2ccccc2nc1NCC` and write its reported GI50.
A: > 100 µM (inactive)

Q: Read the entry CCOC(OC1=C(C#N)CCCC1)C(CC)[Se]c1ccccc1[N+](=O)[O-] (configuration not stated) and write its reported GI50.
A: 26.8 µM (inactive)
